Biological target: Leucyl-tRNA synthetase, putative (Trypanosoma brucei brucei (strain 927/4 GUTat10.1), UniProt Q386D9)
Sequence (Q386D9 whole entry): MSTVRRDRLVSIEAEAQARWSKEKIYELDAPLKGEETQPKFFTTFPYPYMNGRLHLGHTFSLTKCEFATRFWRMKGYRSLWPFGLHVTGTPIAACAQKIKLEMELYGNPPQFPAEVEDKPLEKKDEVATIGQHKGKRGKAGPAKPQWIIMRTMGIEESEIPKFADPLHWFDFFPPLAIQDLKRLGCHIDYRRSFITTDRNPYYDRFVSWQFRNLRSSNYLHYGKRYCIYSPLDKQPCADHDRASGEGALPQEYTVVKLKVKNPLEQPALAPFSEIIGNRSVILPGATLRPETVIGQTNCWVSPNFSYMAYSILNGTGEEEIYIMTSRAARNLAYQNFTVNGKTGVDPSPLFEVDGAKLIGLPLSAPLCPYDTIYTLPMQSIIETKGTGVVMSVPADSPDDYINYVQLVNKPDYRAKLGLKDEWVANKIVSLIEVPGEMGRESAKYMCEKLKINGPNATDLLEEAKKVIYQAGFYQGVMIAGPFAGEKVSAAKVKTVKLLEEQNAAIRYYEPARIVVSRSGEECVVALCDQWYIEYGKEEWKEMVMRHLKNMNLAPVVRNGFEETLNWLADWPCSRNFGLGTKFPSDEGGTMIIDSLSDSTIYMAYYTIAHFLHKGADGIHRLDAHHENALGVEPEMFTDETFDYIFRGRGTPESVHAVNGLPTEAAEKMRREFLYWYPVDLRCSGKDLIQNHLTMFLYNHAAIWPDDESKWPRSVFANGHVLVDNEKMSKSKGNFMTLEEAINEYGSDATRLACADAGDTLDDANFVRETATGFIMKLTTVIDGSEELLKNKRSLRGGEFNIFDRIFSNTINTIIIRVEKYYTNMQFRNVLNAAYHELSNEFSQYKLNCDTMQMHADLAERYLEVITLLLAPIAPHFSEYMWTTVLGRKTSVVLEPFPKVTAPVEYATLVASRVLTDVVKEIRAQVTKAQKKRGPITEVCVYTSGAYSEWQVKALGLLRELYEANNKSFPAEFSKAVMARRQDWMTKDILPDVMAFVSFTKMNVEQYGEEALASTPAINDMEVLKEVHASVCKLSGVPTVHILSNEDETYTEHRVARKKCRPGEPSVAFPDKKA
Test: Inhibition of Trypanosoma brucei LeuRS assessed as reduction in protein synthesis pretreated for 20 mins in presence of [14C]Leu followed by ATP addition measured after 15 mins by scintillation counting method
pIC50: −log10 of the molar value.

{"smiles.string": "CC(C)C[C@H](N)C(=O)NS(=O)(=O)c1cccc(NC(=S)NC(=O)COc2ccc(Br)cc2Cl)c1", "pIC50": 5.96}

* * *

biological target: Leucine--tRNA ligase (Escherichia coli (strain K12), UniProt P07813); experiment: Binding affinity to Escherichia coli LeuRS by isothermal titration calorimetric calorimetry
Sequence (P07813 whole entry): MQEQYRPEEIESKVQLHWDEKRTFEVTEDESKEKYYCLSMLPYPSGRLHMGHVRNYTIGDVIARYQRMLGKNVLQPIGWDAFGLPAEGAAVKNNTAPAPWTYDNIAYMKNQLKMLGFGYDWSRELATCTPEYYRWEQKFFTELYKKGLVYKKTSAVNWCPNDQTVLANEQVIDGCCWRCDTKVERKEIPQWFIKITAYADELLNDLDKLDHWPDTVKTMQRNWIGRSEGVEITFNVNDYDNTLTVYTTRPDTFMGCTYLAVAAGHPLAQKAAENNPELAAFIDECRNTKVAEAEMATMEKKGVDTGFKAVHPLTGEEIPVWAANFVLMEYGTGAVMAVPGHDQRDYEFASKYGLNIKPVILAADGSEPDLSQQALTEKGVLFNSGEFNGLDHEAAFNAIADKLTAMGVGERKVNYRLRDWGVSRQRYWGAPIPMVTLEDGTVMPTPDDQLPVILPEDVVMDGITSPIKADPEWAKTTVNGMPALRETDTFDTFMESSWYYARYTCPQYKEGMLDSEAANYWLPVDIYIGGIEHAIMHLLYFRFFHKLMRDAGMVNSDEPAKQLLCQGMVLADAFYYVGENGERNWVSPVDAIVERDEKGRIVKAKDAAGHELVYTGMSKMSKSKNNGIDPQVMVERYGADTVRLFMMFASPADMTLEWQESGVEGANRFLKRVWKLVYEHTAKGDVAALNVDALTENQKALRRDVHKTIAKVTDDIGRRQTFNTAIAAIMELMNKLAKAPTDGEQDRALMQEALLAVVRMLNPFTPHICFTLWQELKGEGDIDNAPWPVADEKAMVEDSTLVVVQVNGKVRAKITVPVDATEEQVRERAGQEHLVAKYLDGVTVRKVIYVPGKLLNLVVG

{"smiles.string": "CC(C)C[C@H](N)C(=O)NS(=O)(=O)c1ccccc1", "result.unit": "nM", "Kd": 92.9}

* * *

target: Leucine--tRNA ligase (Escherichia coli (strain K12), UniProt P07813); assay: Displacement of IK-698 from Escherichia coli LeuRS by isothermal titration calorimetric calorimetry
attribute.measured: Kd (µM)

{"smiles.string": "CC(C)C[C@H](N)C(=O)NS(=O)(=O)c1cccc(-c2ccnc(N)n2)c1", "result.unit": "µM", "observed.measurement": 0.0145}
{"smiles.string": "CC(C)C[C@H](N)C(=O)NS(=O)(=O)c1cccc(-c2ccnc(N)c2)c1", "result.unit": "µM", "observed.measurement": 0.0128}
{"smiles.string": "CC(C)C[C@H](N)C(=O)NS(=O)(=O)c1cccc(-c2cc(-c3ccccc3)nc(N)n2)c1", "result.unit": "µM", "observed.measurement": 0.056}
{"smiles.string": "Cc1cc(-c2cccc(S(=O)(=O)NC(=O)[C@@H](N)CC(C)C)c2)nc(N)n1", "result.unit": "µM", "observed.measurement": 0.01}
{"smiles.string": "CC(C)C[C@H](N)C(=O)NS(=O)(=O)c1ccc2ccccc2c1", "result.unit": "µM", "observed.measurement": 0.064}
{"smiles.string": "CC(C)C[C@H](N)C(=O)NS(=O)(=O)c1cccc(-c2ccncc2)c1", "result.unit": "µM", "observed.measurement": 0.0109}
{"smiles.string": "CC(C)C[C@H](N)C(=O)NS(=O)(=O)c1cccc(-c2cccc(N)n2)c1", "result.unit": "µM", "observed.measurement": 0.0139}
{"smiles.string": "CC(C)C[C@H](N)C(=O)NS(=O)(=O)c1cccc(-c2ccccc2)c1", "result.unit": "µM", "observed.measurement": 0.0102}
{"smiles.string": "Cc1cc(-c2cccc(S(=O)(=O)NC(=O)[C@@H](N)CC(C)C)c2)ncn1", "result.unit": "µM", "observed.measurement": 0.022}

* * *

biological target: UniProt:Q9P2J5; assay: Inhibition of human cytoplasmic LeuRS assessed as reduction in protein synthesis measured after 10 mins in presence of [3H]Leu by scintillation counting method
pIC50: −log10 of the molar value.

{"smiles.string": "CC(C)C[C@H](N)C(=O)NS(=O)(=O)c1cccc(NC(=S)NC(=O)COc2ccc(Br)cc2Cl)c1", "pIC50": 5.35}

* * *

biological target: Leucine--tRNA ligase, cytoplasmic (Homo sapiens, UniProt Q9P2J5); test: Inhibition of human LeuRS assessed as reduction in ATP consumption
Sequence (Q9P2J5 whole entry): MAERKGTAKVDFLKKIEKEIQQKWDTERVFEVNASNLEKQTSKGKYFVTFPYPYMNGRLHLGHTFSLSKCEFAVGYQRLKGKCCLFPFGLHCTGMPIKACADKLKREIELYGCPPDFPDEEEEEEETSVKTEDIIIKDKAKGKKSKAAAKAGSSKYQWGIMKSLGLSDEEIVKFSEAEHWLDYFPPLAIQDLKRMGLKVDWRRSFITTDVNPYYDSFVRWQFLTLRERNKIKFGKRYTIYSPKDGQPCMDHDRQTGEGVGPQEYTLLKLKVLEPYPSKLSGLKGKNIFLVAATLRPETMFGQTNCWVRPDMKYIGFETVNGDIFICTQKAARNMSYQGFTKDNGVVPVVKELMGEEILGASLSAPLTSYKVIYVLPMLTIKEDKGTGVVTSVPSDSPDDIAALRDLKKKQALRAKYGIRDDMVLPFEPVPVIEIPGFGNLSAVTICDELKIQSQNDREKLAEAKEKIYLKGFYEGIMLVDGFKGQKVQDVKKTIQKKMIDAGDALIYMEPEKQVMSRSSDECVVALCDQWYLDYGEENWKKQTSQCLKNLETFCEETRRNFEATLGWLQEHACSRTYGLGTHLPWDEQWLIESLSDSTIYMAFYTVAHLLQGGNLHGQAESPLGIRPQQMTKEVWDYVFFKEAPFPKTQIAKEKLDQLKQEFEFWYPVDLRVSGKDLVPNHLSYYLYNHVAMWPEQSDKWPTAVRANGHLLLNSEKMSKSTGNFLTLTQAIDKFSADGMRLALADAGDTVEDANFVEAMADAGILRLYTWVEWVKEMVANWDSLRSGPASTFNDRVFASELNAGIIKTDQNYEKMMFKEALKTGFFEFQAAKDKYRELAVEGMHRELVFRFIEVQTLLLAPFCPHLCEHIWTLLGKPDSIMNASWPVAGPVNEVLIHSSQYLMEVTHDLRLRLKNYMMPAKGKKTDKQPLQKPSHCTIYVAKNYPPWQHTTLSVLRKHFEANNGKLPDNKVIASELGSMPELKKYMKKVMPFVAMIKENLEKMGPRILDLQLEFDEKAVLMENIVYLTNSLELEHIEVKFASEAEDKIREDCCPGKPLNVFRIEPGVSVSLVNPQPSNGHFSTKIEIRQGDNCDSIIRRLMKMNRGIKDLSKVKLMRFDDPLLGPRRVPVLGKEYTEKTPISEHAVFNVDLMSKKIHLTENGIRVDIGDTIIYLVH
pIC50: −log10 of the molar value.
Measured pIC50, listed per entry for reference.

{"smiles.string": "CC(C)C[C@H](N)C(=O)NS(=O)(=O)c1ccccc1", "pIC50": 5.96}
{"smiles.string": "CC(C)C[C@H](N)C(=O)NS(=O)(=O)c1cccc(-c2ccnc(N)c2)c1", "pIC50": 6.31}
{"smiles.string": "CC(C)C[C@H](N)C(=O)NS(=O)(=O)c1ccc2ccccc2c1", "pIC50": 6.66}
{"smiles.string": "Cc1cc(-c2cccc(S(=O)(=O)NC(=O)[C@@H](N)CC(C)C)c2)ncn1", "pIC50": 5.70}
{"smiles.string": "CC(C)C[C@H](N)C(=O)NS(=O)(=O)c1cccc(-c2cccc(N)n2)c1", "pIC50": 6.07}
{"smiles.string": "CC(C)C[C@H](N)C(=O)NS(=O)(=O)c1cccc(-c2cc(-c3ccccc3)nc(N)n2)c1", "pIC50": 7.48}
{"smiles.string": "CC(C)C[C@H](N)C(=O)NS(=O)(=O)c1cccc(-c2ccncc2)c1", "pIC50": 5.92}
{"smiles.string": "CC(C)C[C@H](N)C(=O)NS(=O)(=O)c1cccc(-c2ccnc(N)n2)c1", "pIC50": 5.41}
{"smiles.string": "CC(C)C[C@H](N)C(=O)NS(=O)(=O)c1cccc(-c2ccccc2)c1", "pIC50": 5.47}
{"smiles.string": "Cc1cc(-c2cccc(S(=O)(=O)NC(=O)[C@@H](N)CC(C)C)c2)nc(N)n1", "pIC50": 6.80}

* * *

target: Leucine--tRNA ligase (Staphylococcus aureus (strain NCTC 8325), UniProt Q2FXH2); assay: Inhibition of Staphylococcus aureus LeuRS expressed in Escherichia coli M15 cells assessed as reduction in ATP consumption
Sequence (Q2FXH2 whole entry): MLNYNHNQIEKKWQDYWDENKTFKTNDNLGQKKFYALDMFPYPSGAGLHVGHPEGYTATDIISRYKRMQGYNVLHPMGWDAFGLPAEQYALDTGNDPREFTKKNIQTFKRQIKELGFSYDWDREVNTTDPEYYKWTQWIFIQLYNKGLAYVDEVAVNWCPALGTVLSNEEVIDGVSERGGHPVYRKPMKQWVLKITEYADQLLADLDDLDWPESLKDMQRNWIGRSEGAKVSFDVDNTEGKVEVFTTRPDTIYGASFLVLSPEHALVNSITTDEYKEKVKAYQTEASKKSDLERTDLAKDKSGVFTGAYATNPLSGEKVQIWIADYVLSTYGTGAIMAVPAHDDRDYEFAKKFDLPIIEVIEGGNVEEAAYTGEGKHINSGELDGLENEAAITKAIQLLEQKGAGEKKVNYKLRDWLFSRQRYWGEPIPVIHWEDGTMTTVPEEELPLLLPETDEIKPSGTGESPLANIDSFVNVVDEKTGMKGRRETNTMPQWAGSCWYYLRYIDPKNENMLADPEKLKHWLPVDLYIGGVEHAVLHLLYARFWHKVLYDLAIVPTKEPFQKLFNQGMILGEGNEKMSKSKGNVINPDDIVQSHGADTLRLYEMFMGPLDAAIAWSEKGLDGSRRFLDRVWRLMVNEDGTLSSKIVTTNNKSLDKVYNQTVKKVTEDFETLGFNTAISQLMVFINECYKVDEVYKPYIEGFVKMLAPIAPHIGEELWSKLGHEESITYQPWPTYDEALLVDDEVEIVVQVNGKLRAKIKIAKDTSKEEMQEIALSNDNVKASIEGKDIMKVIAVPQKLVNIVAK
pIC50: −log10 of the molar value.
attribute.measured: pIC50

{"smiles.string": "CC(C)C[C@H](N)C(=O)NS(=O)(=O)c1cccc(-c2ccncc2)c1", "observed.measurement": 6.04}
{"smiles.string": "CC(C)C[C@H](N)C(=O)NS(=O)(=O)c1cccc(-c2ccnc(N)c2)c1", "observed.measurement": 6.19}
{"smiles.string": "Cc1cc(-c2cccc(S(=O)(=O)NC(=O)[C@@H](N)CC(C)C)c2)ncn1", "observed.measurement": 5.57}
{"smiles.string": "Cc1cc(-c2cccc(S(=O)(=O)NC(=O)[C@@H](N)CC(C)C)c2)nc(N)n1", "observed.measurement": 5.36}
{"smiles.string": "CC(C)C[C@H](N)C(=O)NS(=O)(=O)c1cccc(-c2ccccc2)c1", "observed.measurement": 6.19}

* * *

This listing pairs compounds with measured pIC50.
target: Leucine--tRNA ligase (Escherichia coli (strain K12)); assay: Inhibition of Escherichia coli LeuRS expressed in Escherichia coli M15 cells assessed as reduction in ATP consumption
pIC50: −log10 of the molar value.
attribute.measured: pIC50

{"smiles.string": "Cc1cc(-c2cccc(S(=O)(=O)NC(=O)[C@@H](N)CC(C)C)c2)ncn1", "observed.measurement": 7.33}
{"smiles.string": "CC(C)C[C@H](N)C(=O)NS(=O)(=O)c1cccc(-c2cc(-c3ccccc3)nc(N)n2)c1", "observed.measurement": 6.65}
{"smiles.string": "Cc1cc(-c2cccc(S(=O)(=O)NC(=O)[C@@H](N)CC(C)C)c2)nc(N)n1", "observed.measurement": 7.39}
{"smiles.string": "CC(C)C[C@H](N)C(=O)NS(=O)(=O)c1cccc(-c2ccnc(N)c2)c1", "observed.measurement": 7.85}
{"smiles.string": "CC(C)C[C@H](N)C(=O)NS(=O)(=O)c1cccc(-c2cccc(N)n2)c1", "observed.measurement": 7.64}
